Hi there, I'd appreciate the recorded IC50 for every entry that follows.
- test system: Avi-KRAS G12V (1-169) GppNHp/RAF1 RBD-3xFLAG (52-151) (Homo sapiens, UniProt P01116, G12V)
- Construct: 50 nM Avi-KRAS G12V (1-169) GppNHp
- Sequence (P01116 1-169 isoform P01116-2 G12V): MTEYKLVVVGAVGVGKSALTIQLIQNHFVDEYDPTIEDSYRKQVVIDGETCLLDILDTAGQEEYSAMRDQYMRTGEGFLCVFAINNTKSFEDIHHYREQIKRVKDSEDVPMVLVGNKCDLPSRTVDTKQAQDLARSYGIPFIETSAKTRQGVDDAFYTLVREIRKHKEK
- assay info: RAS-effector PPI HTRF disruption assay, Raf1-GppNHp-KRAS G12V
- Method: A protein:protein interaction (PPI) Homogeneous Time Resolved Fluorescence (HTRF) assay was used to determine the effectiveness of compounds of the present disclosure in disrupting KRAS protein and effector (RAF1 or PIK3 CA) binding. […] Plates were analyzed on an Envision plate reader using the following setting: Excitation 320 nm, Bandwidth […]; Emission 615 nm, Bandwidth […], Gain 100%, Flashes 100, Lag 60 μs. […] Data was plotted and analyzed using Prism 8. […]

Worked cases, IC50 given:
Nc1nc2c(-c3c(C(F)(F)F)cc4c(O[C@@H]5CCNC5)nc(OC[C@@]56CCCN5C[C@H](F)C6)nc4c3Cl)ccc(F)c2s1 (atropisomer, axis not shown) [Compound 10] ... 1 to 10 µM
Nc1nc2c(-c3c(C(F)(F)F)cc4c(O[C@H]5CNC[C@@H]5F)nc(OC[C@@]56CCCN5C[C@H](F)C6)nc4c3F)ccc(F)c2s1 (atropisomer, axis not shown) [Compound 17] ... 1 to 10 µM

Record IC50 for all entries; do not skip any.
1. N#Cc1c(N)sc2c(F)ccc(-c3ncc4c(O[C@@H]5CCNC5)nc(OC[C@@]56CCCN5C[C@H](F)C6)nc4c3F)c12
2. N#Cc1c(N)sc2c(F)ccc(-c3c(C(F)(F)F)cc4c(OC5CC6(CNC6)C5)nc(OC[C@@]56CCCN5C[C@H](F)C6)nc4c3F)c12
3. Nc1nc2c(-c3c(C(F)(F)F)cc4c(O[C@H]5CN[C@@H](CO)C5)nc(OCC56CCCN5C[C@H](F)C6)nc4c3F)ccc(F)c2s1 (some centres unmarked)

Result:
> 10 µM
0.1 to 1 µM
> 10 µM

###

Could you please report measured pIC50 for the items listed next?
- test system: Avi-KRAS WT (1-169) GppNHp/RAF1 RBD-3xFLAG (52-151) (Homo sapiens, UniProt P01116)
- Construct: 50 nM Avi-KRAS WT (1-169) GppNHp
- Sequence (P01116 1-169 isoform P01116-2): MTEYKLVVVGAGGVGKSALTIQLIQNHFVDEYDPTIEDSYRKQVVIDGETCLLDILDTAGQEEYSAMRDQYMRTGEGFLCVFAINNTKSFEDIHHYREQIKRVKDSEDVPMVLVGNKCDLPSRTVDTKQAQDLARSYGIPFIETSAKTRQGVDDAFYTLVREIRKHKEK
- assay info: RAS-effector PPI HTRF disruption assay, Raf1-GppNHp-KRAS WT
pIC50: −log10 of the molar value.

Nc1nc2c(-c3ncc4c(O[C@@H]5CCNC5)nc(OC[C@@]56CCCN5C[C@H](F)C6)nc4c3F)ccc(F)c2s1 [Compound 24] ... < 5.00
N#Cc1c(N)sc2c(F)ccc(-c3c(Cl)cc4c(O[C@H]5CCN[C@@H]5CO)nc(OC[C@@]56CCCN5C[C@H](F)C6)nc4c3F)c12 (atropisomer, axis not shown) [Compound 75] ... < 5.00
C[C@H]1NCC[C@H]1Oc1nc(OC[C@@]23CCCN2C[C@H](F)C3)nc2c(F)c(-c3ccc(F)c4sc(N)c(C#N)c34)c(C(F)(F)F)cc12 [Compound 47] ... ≥ 7.00
Nc1nc2c(-c3c(C(F)(F)F)cc4c(O[C@H]5CN[C@H](CO)C5)nc(OCC56CCCN5C[C@H](F)C6)nc4c3F)ccc(F)c2s1 (stereo partly drawn) [Compound 52] ... 5.00 to 6.00

Please state, for each entry, its recorded pIC50.
1. C[C@@H]1NCC[C@@H]1Oc1nc(OC[C@@]23CCCN2C[C@H](F)C3)nc2c(F)c(-c3ccc(F)c4sc(N)c(C#N)c34)c(Cl)cc12 [Compound 65]
2. COC[C@@H]1C[C@@H](Oc2nc(OC[C@@]34CCCN3C[C@H](F)C4)nc3c(F)c(-c4ccc(F)c5sc(N)c(C#N)c45)c(C(F)(F)F)cc23)CN1 (atropisomer, axis not shown) [Compound 84]

Result:
["6.00 to 7.00", "6.00 to 7.00"]

Record pIC50 for all entries; do not skip any.
1. Nc1nc2c(-c3ccc4c(O[C@H]5CNC[C@H]5F)nc(OC[C@@]56CCCN5C[C@H](F)C6)nc4c3F)ccc(F)c2s1 [Compound 82]
2. C[C@H]1C[C@@H](Oc2nc(OC[C@@]34CCCN3C[C@H](F)C4)nc3c(F)c(-c4ccc(F)c5sc(N)nc45)c(C(F)(F)F)cc23)CN1 [Compound 7]
3. N#Cc1c(N)sc2c(F)ccc(-c3ccc4c(O[C@@H]5CCNC5)nc(OC[C@@]56CCCN5C[C@H](F)C6)nc4c3F)c12 [Compound 48]
4. C[C@H]1C[C@H](Oc2nc(OC[C@@]34CCCN3C[C@H](F)C4)nc3c(F)c(-c4ccc(F)c5sc(N)c(C#N)c45)c(Cl)cc23)CN1 [Compound 55]
5. Nc1nc2c(-c3c(C(F)(F)F)cc4c(O[C@H]5C[C@H]6CC[C@@H](C5)N6)nc(OCC56CCCN5CCC6)nc4c3F)ccc(F)c2s1 (atropisomer, axis not shown) [Compound 6]
6. N#Cc1c(N)sc2c(F)ccc(-c3cc4nc(OC[C@@]56CCCN5C[C@H](F)C6)nc(O[C@@H]5CCNC5)c4nc3C(F)(F)F)c12 [Compound 93]

Result:
1. < 5.00
2. 5.00 to 6.00
3. 5.00 to 6.00
4. 5.00 to 6.00
5. 5.00 to 6.00
6. 5.00 to 6.00
